- experiment summary: Human HepG2 cell viability assay in 384 well format
- Assay type: toxicity, cell-based
- Set-up: dose 125 nL, time 70.5 hour; concentration not given beside the values
- condition description: HepG2 cells, read-out: Inhibition
measurement kind: cytotoxicity at 70.5 h (%)
Response body: numeric value in %, unit text excluded.

Guide cases for cytotoxicity at 70.5 h, answers given:
Lookup result for COCCN1CCC(CNCc2c[nH]nc2C(C)(C)C)CC1 ; measured cytotoxicity at 70.5 h: 24.7

Lookup result for COc1ccc(CNCc2c(C)nc3sc(C)cn23)c(OC)c1OC ; measured cytotoxicity at 70.5 h: 11.7

Lookup result for CCc1sc(C(=O)NC2CC2)cc1C ; measured cytotoxicity at 70.5 h: 8.53

Lookup result for COCCC(=O)N1CCC2(CC1)CN(C(C)=O)Cc1ccccc1O2 ; measured cytotoxicity at 70.5 h: 0.622

Lookup result for CN(Cc1ncnn1C)C(=O)CCn1ccc2ccccc21 ; measured cytotoxicity at 70.5 h: -7.59

More entries:
Lookup result for CCCc1nc(C)c(C(=O)NC2CCN(C3CC3)C2)s1 (centres undefined) ; measured cytotoxicity at 70.5 h: 14.1

Lookup result for O=C(c1ncoc1C1CC1)N1CCN(CCOc2ccccc2)CC1 ; measured cytotoxicity at 70.5 h: 26

Lookup result for COCCN1C[C@@H]2CN(S(=O)(=O)c3cccs3)C[C@@H]2C1=O ; measured cytotoxicity at 70.5 h: -8.88
